Cited source: paper PMC10568492

# key: entry, value: concentration at 1 h
Assay details: Oral exposure in mice
Assay type: in vivo, mouse
Particulars: male, SCID, mouse, plasma, po, 10 mg/kg
Please reply with the bare figure in ng/mL and do not write the unit itself.

N#Cc1ccc(N2CCC3(CCN(c4ccc(C(=O)N5CCCN(C6CCN(c7ccc8c(c7)C(=O)N(C7CCC(=O)NC7=O)C8=O)CC6)CC5)cc4)CC3)C2)cc1Cl (centres unmarked) = 46

Which concentration at 1 h value belongs to N#Cc1ccc(N2CCC3(CCN(c4ccc(C(=O)N5CCN(C6CN(c7ccc8c(c7)C(=O)N(C7CCC(=O)NC7=O)C8=O)C6)CC5)cc4)CC3)C2)cc1Cl (centres unmarked) ?
501

---

Assay details: Oral exposure in mice
Format: in vivo, mouse
Particulars: male, SCID, mouse, plasma, po, 10 mg/kg
Experimental readout: concentration at 3 h (ng/mL)
# value in ng/mL; strip the unit string

N#Cc1ccc(N2CCC3(CCN(c4ccc(C(=O)N5CCCN(C6CCN(c7ccc8c(c7)C(=O)N(C7CCC(=O)NC7=O)C8=O)CC6)CC5)cc4)CC3)C2)cc1Cl (centres unmarked) = 8

Now consider a different compound.
Which concentration at 3 h is reported for this compound? N#Cc1ccc(N2CCC3(CCN(c4ccc(C(=O)N5CCN(C6CN(c7ccc8c(c7)C(=O)N(C7CCC(=O)NC7=O)C8=O)C6)CC5)cc4)CC3)C2)cc1Cl (centres unmarked)
171

---

Assay details: PK study in mouse
Assay type: in vivo
Particulars: male, ICR, plasma, po, 5 mg/kg
Experimental readout: AUC(0-t) (ng·h/mL)
API: value field is a number in ng·h/mL; no unit string.

Could you share which AUC(0-t) value was measured for C[C@H]1CC2(CCN(c3ccc(C(=O)N4CCN(C5CN(c6ccc7c(c6)C(=O)N(C6CCC(=O)NC6=O)C7=O)C5)CC4)cc3)CC2)CN1c1ccc(C#N)c(Cl)c1 (stereo partly shown) [Compound 30] ?
11700

---

Assay details: Oral exposure in mice
Type: in vivo, mouse
Particulars: male, SCID, mouse, plasma, po, 10 mg/kg
Experimental readout: concentration at 24 h (ng/mL)
Unit ng/mL implied. Number only.

Entry N#Cc1ccc(N2CCC3(CCN(c4ccc(C(=O)N5CCN(C6CN(c7ccc8c(c7)C(=O)N(C7CCC(=O)NC7=O)C8=O)C6)CC5)cc4)CC3)C2)cc1Cl (stereo not shown) : reported concentration at 24 h = ?
44

---

Assay details: PK study in rat
Format: in vivo
Particulars: male, Sprague-Dawley, plasma, po, 10 mg/kg
Experimental readout: Cmax (ng/mL)
Only the number, expressed in ng/mL, is required.

Find the recorded Cmax belonging to C[C@H]1CC2(CCN(c3ccc(C(=O)N4CCN(C5CN(c6ccc7c(c6)C(=O)N(C6CCC(=O)NC6=O)C7=O)C5)CC4)cc3)CC2)CN1c1ccc(C#N)c(Cl)c1 (stereo partly shown) and report it.
1470

---

Assay details: PK study in rat
Format: in vivo
Particulars: male, Sprague-Dawley, plasma, po, 10 mg/kg
Experimental readout: AUC(0-t) (ng·h/mL)
Give the number; ng·h/mL is assumed, so skip it.

Item under review: C[C@H]1CC2(CCN(c3ccc(C(=O)N4CCN(C5CN(c6ccc7c(c6)C(=O)N(C6CCC(=O)NC6=O)C7=O)C5)CC4)cc3)CC2)CN1c1ccc(C#N)c(Cl)c1 (stereo partly shown) [Compound 30] . Reported AUC(0-t)?
12800
